EXPERIMENTAL PROTOCOL: Plasma pharmacokinetics in mice (oral and subcutaneous)
Assay type: in vivo, BALB/c mice
PARTICULARS: female, BALB/c, mouse, plasma, PO, nominal dose 5 mg/kg (administered 4.8), read-out: T1/2 (converted)
READOUT TYPE: half-life (h)
Your answer should be a plain number; it is taken to be in h.

Consider the compound shown here: COC(=O)Nc1nc2ccc([S+]([O-])c3ccccc3)cc2[nH]1 (stereo not shown) What is its recorded half-life?
2.87

###

PARTICULARS: human, hepatocytes
READOUT TYPE: CLhep predicted (mL/min/kg)
Your answer should be a plain number; it is taken to be in mL/min/kg.

Consider the compound shown here: COC(=O)Nc1nc2ccc([S+]([O-])c3ccccc3)cc2[nH]1 (stereo not shown) What is its recorded CLhep predicted?
0.4

###

EXPERIMENTAL PROTOCOL: Plasma pharmacokinetics in mice (oral and subcutaneous)
Format: in vivo, BALB/c mice
PARTICULARS: female, BALB/c, mouse, plasma, PO, nominal dose 25 mg/kg (administered 26.3)
READOUT TYPE: Tmax (h)
Your answer should be a plain number; it is taken to be in h.

Consider the molecule shown here: COC(=O)Nc1nc2ccc([S+]([O-])c3ccccc3)cc2[nH]1 (stereo not shown) [oxfendazole] What is its recorded Tmax?
2
